Numbers sourced from patent US11912693B2.

Provide the reported hS1P1 cAMP pEC50 of each item.
Tested on: human sphingosine-1-phosphate receptor 1 (S1P1) (Homo sapiens (Human))
Sequence (P21453 whole entry, looked up): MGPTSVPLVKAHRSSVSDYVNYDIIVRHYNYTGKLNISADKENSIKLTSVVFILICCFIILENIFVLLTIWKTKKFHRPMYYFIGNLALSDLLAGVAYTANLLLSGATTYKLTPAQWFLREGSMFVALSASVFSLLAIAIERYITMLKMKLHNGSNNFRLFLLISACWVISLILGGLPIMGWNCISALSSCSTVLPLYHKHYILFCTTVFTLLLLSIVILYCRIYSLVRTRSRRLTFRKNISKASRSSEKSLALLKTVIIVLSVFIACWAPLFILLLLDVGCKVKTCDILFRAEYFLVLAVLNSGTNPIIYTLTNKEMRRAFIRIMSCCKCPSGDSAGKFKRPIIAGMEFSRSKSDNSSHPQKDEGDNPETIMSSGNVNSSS
Test name: Inhibition of cAMP production (HTRF cAMP HiRange), S1P1 CHO-K1 cells
Type: cell-based
Test parameters: inhibition of cAMP production, S1P1 CHO-K1 cells

# count of solved cases: 5
Compound	hS1P1 cAMP pEC50
Oc1ccc(-c2noc(-c3ccc4c(c3)nnn4C3CCCC3)n2)cc1 [Compound 13]	>6.5
COc1cccc(OC)c1-c1noc(-c2ccc3c(c2)nnn3C(C)C)n1 [Compound 251]	<6.5
COc1ncccc1-c1noc(-c2ccc3c(c2)nnn3C(C)C)n1 [Compound 619]	>6.5
C=CCn1nnc2cc(-c3nc(-c4ccccc4)no3)ccc21 [Compound 270]	<6.5
CC1(C)Oc2ccc(-c3nc(-c4ccncc4)no3)cc2C1=O [Compound 480]	<6.5

Kindly give each listed record's hS1P1 cAMP pEC50.
1. Cc1ccccc1Cc1noc(-c2ccc3c(c2)nnn3C(C)C)n1 [Compound 202]
2. Cc1ccccc1-c1noc(-c2ccc3c(c2)CCC(=O)N3C)n1 [Compound 367]
3. CCC1(CC)CC(=O)c2cc(-c3nc(-c4cccnn4)no3)ccc2O1 [Compound 621]
4. COc1cccc(-c2noc(-c3ccc4c(c3)nnn4C(C)C)n2)c1 [Compound 228]
5. CCC1(CC)CC(=O)c2cc(-c3ncc(-c4ccccn4)cn3)ccc2O1 [Compound 530]
6. CCC1(CC)CC(=O)c2cc(-c3nc(-c4cccc(O)c4)no3)ccc2O1 [Compound 227]

1. <6.5
2. <6.5
3. <6.5
4. <6.5
5. <6.5
6. >6.5
